- Tested System: HLA-B*14:02
- Test Description: IEDB peptide-MHC binding, purified MHC/competitive/fluorescence; filed as Kd, often an IC50 or EC50 that approximates it; bounds were set here for any values at or beyond the usual limits of such assays
- Run Parameters: source organism: Entamoeba histolytica HM-1:IMSS
pKd: −log10 of the molar value.
Readout Name: pKd

Asked: Which value of pKd has been reported for IESNPLFPV in the records?
Given back: ≤ 5.30

* * *

- Tested System: HLA-B*53:01
- Test Description: IEDB peptide-MHC binding, purified MHC/competitive/radioactivity; filed as Kd, often an IC50 or EC50 that approximates it; bounds were set here for any values at or beyond the usual limits of such assays
- Run Parameters: source organism: Triticum aestivum
Readout Name: Kd

Asked: Request - read-out Kd | tested on HLA-B*53:01 | sequence QPFRPQQPY
Given back: ≥ 35.2 µM
